B1: tRNA (parent)
chain: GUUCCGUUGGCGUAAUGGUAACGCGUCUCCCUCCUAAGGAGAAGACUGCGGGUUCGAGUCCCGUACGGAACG

- Variants of: B1
- Assay method text: yeast fitness, log relative to wild type (ln ratio); higher = fitter; tRNA-Arg(CCU), competitive growth, 37 C, 1 M NaCl
Reported yeast fitness (ln) values follow for various variants
Readout type: yeast fitness (ln)

INSERT INTO results (sequence_content, result) VALUES
  ('GGUCCAUUGGCGUAAUGGUAACGCGUUUCCCUCCUAAGGAGAAGACUGCGGGUUCGAGUCCCGUAAGGAUUG [U2G G6A C27U C66A A70U C71U]', -0.244),
  ('GUUCCGUUGGCGUAAUGGUAACGCGUCUCCCUCCUAAGGAGACGACUGCGGGUUCGAGUCCCGUACGGGUCG [A43C A69G A70U]', -0.0328),
  ('GUUCCUUUGGCGUAAUGGUAACGCGUCUCCCUCCUAAGGAGACGAUUGCGGGUUCGAGUCCCGUAAGGGUUG [G6U A43C C46U C66A A69G A70U C71U]', -0.314),
  ('GUUCCGUUGGCGUAAUGGUAACGCGUCUCCCUCCUAAGGAGAAGAUUGCGGGUUCGAGUCCCGUACGGAUCG [C46U A70U]', 0.00508),
  ('GUUCCGUUGGCGUAAUGGUAACGCGUUUCCCUCCUAAGGAGAAGAUUGCGGGUUCGAGUCCCGUAUGGAACG [C27U C46U C66U]', -0.0577);
